System: Mus musculus
ASSAY DETAILS: Percentage increase in seizure threshold at dose of 10 mg/kg in mouse maximal electroshock seizure threshold (MEST) model after po administration
Format: functional
READOUT: Increase
Put your answer as a value accompanied by its unit after it.

Answered examples (5):
COMPOUND	READOUT	RESULT VALUE
Cc1ccc2c(c1)C(NC(=O)c1ccc(F)cc1)C(O)C(C)(C)O2 (centres undefined)	Increase	5%
COC(=O)c1ccc2c(c1)C(NC(=O)c1ccc(F)cc1)C(O)C(C)(C)O2 (centres undefined)	Increase	59%
CC(=O)c1ccc2c(c1)[C@H](NC(=O)c1ccccc1)[C@@H](O)C(C)(C)O2	Increase	110%
CC1(C)Oc2ccc(C(N)=O)cc2C(NC(=O)c2ccc(F)cc2)C1O (centres undefined)	Increase	6%
CC1(C)Oc2ccc([N+](=O)[O-])cc2C(NC(=O)c2ccc(F)cc2)C1O (centres undefined)	Increase	45%

### Prompt May I ask what Increase has been recorded for CCC(=O)c1ccc2c(c1)C(NC(=O)c1ccc(F)cc1)C(O)C(C)(C)O2 (centres undefined) ?
### Response 35%

### Prompt May I ask what Increase has been recorded for CC(=O)c1ccc2c(c1)[C@H](NC(=O)c1cccc(Cl)c1)[C@@H](O)C(C)(C)O2 ?
### Response 90%

### Prompt May I ask what Increase has been recorded for CC(=O)c1ccc2c(c1)[C@H](NC(=O)c1ccc(F)cc1)[C@@H](O)C(C)(C)O2 [CARABERSAT] ?
### Response 102%

### Prompt May I ask what Increase has been recorded for CC(=O)c1cccc2c1OC(C)(C)C(O)C2NC(=O)c1ccc(F)cc1 (centres undefined) ?
### Response 5%
